Data origin, for the record: patent US8207163B2

As shown below, each of these compounds has a reported pKi value.
assay system: serotonin 5-HT1A receptor (human recombinant expressed in HEK-293 cells) (Homo sapiens)
Sequence (P08908 whole entry): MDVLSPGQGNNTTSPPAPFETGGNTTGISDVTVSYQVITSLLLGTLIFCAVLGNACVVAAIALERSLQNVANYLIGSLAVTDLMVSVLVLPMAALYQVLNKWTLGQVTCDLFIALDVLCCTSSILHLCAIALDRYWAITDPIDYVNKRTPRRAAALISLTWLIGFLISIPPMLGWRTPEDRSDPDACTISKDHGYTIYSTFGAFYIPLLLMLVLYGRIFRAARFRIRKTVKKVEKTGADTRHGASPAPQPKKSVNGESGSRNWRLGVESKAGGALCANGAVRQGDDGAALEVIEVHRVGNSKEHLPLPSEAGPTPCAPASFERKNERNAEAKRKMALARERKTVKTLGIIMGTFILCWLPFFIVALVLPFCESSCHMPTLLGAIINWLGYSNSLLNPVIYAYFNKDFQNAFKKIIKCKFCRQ
test description: Serotonin, 5HT1A (human recombinant) radioligand binding assay, [3H]-8-OH-DPAT
experimental setup: human recombinant in HEK-293 cells
Structures can show the parent of a compound that is named as a salt.
pKi here is simply -log10 of the concentration when that concentration is written in mol/L.

CCOC(=O)C(C)(C)Oc1ccccc1N1CCN(CCCCOc2ccc3c(c2)NC(=O)CO3)CC1 [Compound 18c, hydrochloride]    8.57
O=C(CCCN1CCN(c2cccc(Cl)c2Cl)CC1)Nc1ccc2c(c1)NC(=O)CO2 [Compound 5b, hydrochloride]    7.94

Q: State the recorded pKi for this entry: CCOC(=O)CN1C(=O)COc2ccc(OCCCCN3CCN(c4cccc(Cl)c4Cl)CC3)cc21 [Compound 28c, hydrochloride]
A: 8.53

Q: State the recorded pKi for this entry: CCOC(=O)CCCOc1ccccc1N1CCN(CCCCOc2ccc3c(c2)NC(=O)CO3)CC1 [Compound 18a, hydrochloride]
A: 7.99

Q: Returns the measured pKi for the input compound. Input: CCOC(=O)C(C)(C)CCOc1ccccc1N1CCN(CCCCOc2ccc3c(c2)NC(=O)CO3)CC1 [Compound 18b, hydrochloride]
A: 8.48
